# MEASUREMENT CONDITIONS: pH 2.7
Marks after values point to notes of the source that are not given here.
READOUT KIND: Log P

[ask] Using the record for CCOC(=O)C(C#N)=C(NC(C)C1CCC1)c1cc(Cl)sc1Cl (centres unmarked) , report its Log P.
[reply] 5.03^[a]

[ask] Using the record for C#CC(C)(C)NC(=C(C#N)C(=O)OCC)c1sc(Cl)nc1Cl , report its Log P.
[reply] 3.61^[a]

[ask] Using the record for C=CCNC(=O)C(C#N)=C(NC(C)c1nccs1)c1cn(C)nc1C(F)F (racemic) , report its Log P.
[reply] 2.2^[a]

[ask] Using the record for CCOC(=O)C(C#N)=C(Nc1ccccc1OC(C)C)c1sc(C)nc1C(F)(F)F , report its Log P.
[reply] 4.36^[a]

[ask] Using the record for CCOC(=O)C(C#N)=C(NC(C)C(C)C)c1ncc(Cl)cc1Cl (centres unmarked) , report its Log P.
[reply] 4.19^[a]

[ask] Using the record for CCOC(=O)C(C#N)=C(Nc1ccccc1S(C)(=O)=O)c1cc(C)oc1C , report its Log P.
[reply] 2.65^[a]

[ask] Using the record for CCOC(=O)C(C#N)=C(NC(C)C(=O)NC)c1cn(C)nc1C(F)(F)F (centres unmarked) , report its Log P.
[reply] 1.95^[a]

[ask] Using the record for CCOC(=O)C(C#N)=C(NC(C)c1ccccn1)c1ccnc(Cl)c1Cl (mixture of isomers) , report its Log P.
[reply] 3.04^[a]

[ask] Using the record for CCOC(=O)C(C#N)=C(NC(CC)COC)c1cccnc1Cl (centres unmarked) , report its Log P.
[reply] 2.92^[a]

[ask] Using the record for CCOC(=O)C(C#N)=C(NC(C)c1csc(-c2ccccc2)n1)c1cccnc1Cl (centres unmarked) , report its Log P.
[reply] 4^[a]

[ask] Using the record for COC(=O)C(C#N)=C(NC1CC(C)CCC1C)c1cccnc1Cl (centres unmarked) , report its Log P.
[reply] 3.73^[a]

[ask] Using the record for CCOC(=O)C(C#N)=C(NC(C)COCc1ccc(C(F)(F)F)cc1)c1cn(C)nc1C(F)F (centres unmarked) , report its Log P.
[reply] 3.99^[a]

[ask] Using the record for CCOC(=O)C(C#N)=C(Nc1ccc(C#N)cc1)c1cccnc1Cl , report its Log P.
[reply] 2.73^[a]

[ask] Using the record for COC(=O)C(C#N)=C(Nc1ccc2ncsc2c1)c1sc(C)nc1C(F)(F)F , report its Log P.
[reply] 2.64^[a]

[ask] Using the record for COC(=O)C(C#N)=C(NC1CCCC2CCCCC21)c1cccnc1Cl (centres unmarked) , report its Log P.
[reply] 4.25^[a]

[ask] Using the record for CCOC(=O)C(C#N)=C(NC1CC1C)c1cccnc1Cl (centres unmarked) , report its Log P.
[reply] 2.86^[a]

[ask] Using the record for CCOC(=O)C(C#N)=C(NC(C)c1nccs1)c1cn(C)nc1C(F)F (centres unmarked) [Compound 326] , report its Log P.
[reply] 2.44^[a]

[ask] Using the record for CCOC(=O)C(C#N)=C(NC(C)COc1cccc(C(F)(F)F)c1)c1cn(C)nc1C(F)F (racemic) , report its Log P.
[reply] 3.92^[a]

[ask] Using the record for CCOC(=O)C(C#N)=C(NC1CCC1)c1cnn(C)c1C(F)F , report its Log P.
[reply] 2.84^[a]

[ask] Using the record for CCOC(=O)C(C#N)=C(NC(C)C(F)(F)F)c1cc(Cl)sc1Cl (racemic) , report its Log P.
[reply] 4.11^[a]

[ask] Using the record for CCCc1nccc(C(NC(C)C(C)C)=C(C#N)C(=O)OCC)c1Cl (centres unmarked) , report its Log P.
[reply] 4.41^[a]

[ask] Using the record for CCOC(=O)C(C#N)=C(NC(C)c1ncc(C)s1)c1cccnc1Cl (centres unmarked) , report its Log P.
[reply] 2.92^[a]

[ask] Using the record for CCOC(=O)C(C#N)=C(NC(C)Cc1c[nH]c2ccccc12)c1conc1C (centres unmarked) , report its Log P.
[reply] 3.15^[a]

[ask] Using the record for CCOC(=O)C(C#N)=C(Nc1ccccc1Sc1ccc(C)cc1)c1cc(C)oc1C , report its Log P.
[reply] 5.08^[a]

[ask] Using the record for CCOC(=O)C(C#N)=C(NC(C)CC)c1nc(Cl)ccc1Cl (racemic) , report its Log P.
[reply] 3.67^[a]

[ask] Using the record for CCOC(=O)C(C#N)=C(NC(C)c1cccs1)c1sccc1C(F)(F)F (centres unmarked) , report its Log P.
[reply] 3.99^[a]

[ask] Using the record for CCNC(=O)C(C#N)=C(NC(C)C(C)C)c1cccnc1Cl (centres unmarked) , report its Log P.
[reply] 2.94

[ask] Using the record for CCOC(=O)C(C#N)=C(NC(C(=O)OC)C(C)C)c1ccsc1Br (centres unmarked) [Compound 715] , report its Log P.
[reply] 3.48^[a]

[ask] Using the record for CCOC(=O)C(C#N)=C(NC(C)C1CC1)c1scnc1Cl (centres unmarked) , report its Log P.
[reply] 2.02^[a]

[ask] Using the record for CCOC(=O)C(C#N)=C(NC(C)c1nccs1)c1scnc1Cl (centres unmarked) , report its Log P.
[reply] 2.59^[a]

[ask] Using the record for C=Cc1nn(C)cc1C(NC(C)c1nccs1)=C(C#N)C(=O)OCC (racemic) , report its Log P.
[reply] 2.3^[a]

[ask] Using the record for CCOC(=O)C(C#N)=C(NC(c1ccccn1)C(F)(F)F)c1cccnc1Cl (racemic) , report its Log P.
[reply] 3.17^[a]

[ask] Using the record for CCOC(=O)C(C#N)=C(NC(C)CSc1ccc(Cl)c(Cl)c1)c1cn(C)nc1C(F)F (racemic) , report its Log P.
[reply] 4.2^[a]

[ask] Using the record for CCOC(=O)C(C#N)=C(NC(C)C(C)C)c1ccnc(CC)c1Cl (centres unmarked) , report its Log P.
[reply] 4.02^[a]

[ask] Using the record for COC(=O)C(C#N)=C(NC(C)c1ccc(OC)cc1)c1cccnc1Cl (centres unmarked) , report its Log P.
[reply] 2.65^[a]
